target under test: T1, purified recombinant human VEGF165 (human, UniProt P15692 27-191, glycosylated)
T1 construct: mature; Bought from Calbiochem; also called VEGF protein (Calbiochem); homodimeric VEGF protein
T1 sequence (P15692 other isoform, or with tags, fused parts or gaps limits assumed): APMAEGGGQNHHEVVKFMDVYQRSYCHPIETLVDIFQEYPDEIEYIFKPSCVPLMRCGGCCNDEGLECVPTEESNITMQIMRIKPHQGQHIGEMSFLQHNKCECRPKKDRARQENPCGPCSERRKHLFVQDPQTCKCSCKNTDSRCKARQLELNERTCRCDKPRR
assay: SPR (BIAcore), purified scFv over VEGF immobilized on CM5 chip, 25 C
Method: Antibody fragments in the format of single chain were expressed as described below and purified. The measurement was done by measuring the change of SPR units (y-axis) vs time (x-axis) when a purified antibody binds its antigen (VEGF) immobilized on the CM5 biochip at 25° C. Kd values were calculated by the […]. BIAcore Biosensor Assay was used to determine antibody affinity. […] Each sensorgram was recorded and normalized to a PBS base line.
readout kind: Kd

For hAB9 (scFv, Single chain format; not shown: HA-His6 tag at C-terminus) scFv: EVQLVQSGGGVVQPGGSLRLSCAASGYTFTNYGMNWVRQAPGKGLEWVGWINTYTGEPTYAADFKRRFTFSLDTSKSTAYLQMNSLRAEDTAVYYCAKYPYYYGRSHWYFDVWGQGTLVTVSSGGGGSGGGGSGGGGSDIQLTQSPSSLSASAGDRVTISCSASQDISNYLNWYQQKPGKAPQLLIYFTSSLHSGVPSRFSGSGSGTDFTLTISSLQPEDFATYYCQQYSTVPWTFGQGTKVEIK , what is its reported Kd?
4.9 nM
